meta.source: paper PMC11310081

System: E. faecium ATCC 700221 (vancomycin-resistant strain)
Format: cell-based, Enterococcus faecium
Details: ATCC 700221, 20 h
Peptide text beside a SMILES is read from it.
Quantity: Minimal inhibitory concentration, E. faecium ATCC700221-VRE (µM)
Write it as a number; the unit µM goes unstated.

Please fill in: Minimal inhibitory concentration, E. faecium ATCC700221-VRE reported for CC[C@H](C)[C@H](NC(=O)[C@H](CO)NC(=O)CNC(=O)[C@H](CC(C)C)NC(=O)[C@H](CC(C)C)NC(=O)[C@H](CC(C)C)NC(=O)[C@H](CCCNC(=N)N)NC(=O)[C@H](CCCCN)NC(=O)[C@@H](NC(=O)[C@H](CO)NC(=O)[C@H](CC(N)=O)NC(=O)[C@@H](NC(=O)[C@H](CC(C)C)NC(=O)[C@@H](N)CC(C)C)[C@@H](C)CC)[C@@H](C)CC)C(=O)N[C@@H](CC(C)C)C(=O)O [Arctodutin-1] (H-LLINSIKRLLLGSIL-OH; N-terminus and C-terminus assumed) = 2
